System: SR leukemia
Test: NCI tumour cell line growth inhibition, 48 h
assayEndpoint: GI50

Problem: // lookup GI50 | system=SR leukemia | key= O=C1c2cccc3cc([N+](=O)[O-])cc(c23)C(=O)N1CCN1CCCC1
Result: 52.3 nM

Problem: Field: GI50 (SR leukemia). Entry: N/C(=N\c1nc2ccccc2s1)NC(=O)Nc1ccccc1Cl
Result: 41.1 nM

Problem: Give GI50 (SR leukemia) of the following compound: Oc1cccc(Cn2c(-c3cccc(O)c3O)nc3ccccc32)c1O
Result: 3420 nM

Problem: Form field - read-out: GI50; system: SR leukemia; submitted item: COc1cc([C@@H]2c3cc4c(cc3[C@H](OC(C)=O)[C@H]3COC(=O)[C@H]23)OCO4)cc(OC)c1OC
Result: 22.5 nM

Problem: Param readout = GI50; param system = SR leukemia; param query = COc1c(B(O)O)cccc1-c1nc2c(F)cc3[nH]ncc3c2c2c1CCCC2 ; response: value
Result: 2130 nM
